target: LRRK2(G2019S mutation, GST-LRRK2(amino acids 970-2527)) (Homo sapiens (Human), UniProt Q5S007, G2019S); test: LRRK2 Km ATP LanthaScreen Assay; format: biochemical; settings: Km ATP (184 μM ATP solution), G2019S LRRK2, mean IC50
Sequence (Q5S007 970-2527 G2019S): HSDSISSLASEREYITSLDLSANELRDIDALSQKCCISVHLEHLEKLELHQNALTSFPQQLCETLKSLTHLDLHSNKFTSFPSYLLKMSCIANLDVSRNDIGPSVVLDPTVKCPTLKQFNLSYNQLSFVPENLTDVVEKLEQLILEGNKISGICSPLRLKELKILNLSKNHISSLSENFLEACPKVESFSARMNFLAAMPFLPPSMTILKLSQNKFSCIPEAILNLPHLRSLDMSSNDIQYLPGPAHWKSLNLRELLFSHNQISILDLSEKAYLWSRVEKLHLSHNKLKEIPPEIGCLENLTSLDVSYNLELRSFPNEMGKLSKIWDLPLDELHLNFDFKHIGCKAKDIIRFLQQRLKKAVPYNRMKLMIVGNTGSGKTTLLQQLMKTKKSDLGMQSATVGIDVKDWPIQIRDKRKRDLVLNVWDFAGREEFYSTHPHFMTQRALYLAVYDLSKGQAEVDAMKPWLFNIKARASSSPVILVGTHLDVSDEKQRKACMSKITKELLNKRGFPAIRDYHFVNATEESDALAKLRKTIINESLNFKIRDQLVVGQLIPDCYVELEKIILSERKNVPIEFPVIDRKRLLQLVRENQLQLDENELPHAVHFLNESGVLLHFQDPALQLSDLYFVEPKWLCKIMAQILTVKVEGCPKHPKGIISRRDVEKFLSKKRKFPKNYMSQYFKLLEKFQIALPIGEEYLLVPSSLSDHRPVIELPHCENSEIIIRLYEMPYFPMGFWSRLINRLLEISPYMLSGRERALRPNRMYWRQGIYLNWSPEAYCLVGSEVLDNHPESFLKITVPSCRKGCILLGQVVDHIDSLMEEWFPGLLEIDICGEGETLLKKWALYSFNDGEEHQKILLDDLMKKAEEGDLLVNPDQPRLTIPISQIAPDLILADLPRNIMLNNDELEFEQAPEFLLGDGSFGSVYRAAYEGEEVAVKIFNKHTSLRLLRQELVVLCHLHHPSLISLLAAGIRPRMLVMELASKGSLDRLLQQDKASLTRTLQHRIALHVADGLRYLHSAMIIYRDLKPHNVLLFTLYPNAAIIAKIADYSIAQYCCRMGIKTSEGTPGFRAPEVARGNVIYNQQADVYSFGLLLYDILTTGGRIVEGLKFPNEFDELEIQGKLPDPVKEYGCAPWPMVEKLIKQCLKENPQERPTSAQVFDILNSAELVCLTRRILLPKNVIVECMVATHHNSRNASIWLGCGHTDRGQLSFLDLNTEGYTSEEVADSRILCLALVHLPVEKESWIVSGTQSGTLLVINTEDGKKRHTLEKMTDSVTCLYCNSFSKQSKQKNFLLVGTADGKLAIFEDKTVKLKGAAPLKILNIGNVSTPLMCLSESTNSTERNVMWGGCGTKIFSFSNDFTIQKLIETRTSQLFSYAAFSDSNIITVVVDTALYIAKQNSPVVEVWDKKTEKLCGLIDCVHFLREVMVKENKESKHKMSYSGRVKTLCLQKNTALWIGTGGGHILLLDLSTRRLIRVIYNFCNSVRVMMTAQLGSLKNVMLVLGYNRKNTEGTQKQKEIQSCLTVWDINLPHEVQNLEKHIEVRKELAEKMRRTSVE
# IC50 per record follows

query.smiles | result.unit | IC50
CC(C)Oc1cc2c(-c3cc(N4CCN(c5cnn(C)c5)CC4)ncn3)n[nH]c2cc1F | nM | 2.19
CC(C)NC(=O)CN1CCN(c2cc(-c3n[nH]c4ccc(OC(C)C)cc34)ncn2)CC1 | nM | 5.1
CC(C)Oc1ccc2[nH]nc(-c3cc(N4CCC(C(C)(C)O)CC4)ncn3)c2c1 | nM | 5.4
CC(C)Oc1cc2c(-c3cc(N4CCN(C(=O)C5CC5)CC4)ncn3)n[nH]c2cc1F | nM | 2.98

* * *

target: LRRK2(G2019S mutation, GST-LRRK2(amino acids 970-2527)) (Homo sapiens (Human), UniProt Q5S007, G2019S); experiment: LRRK2 Km ATP LanthaScreen Assay; format: biochemical; conditions: Km ATP (184 μM ATP solution), G2019S LRRK2, mean IC50
pIC50: −log10 of the molar value.
# pIC50 per record follows
experimental.readout: pIC50

query.smiles | val
COc1ccc2[nH]nc(-c3cc(N4CCN(C)CC4)ncn3)c2c1 | 7.55
CC(C)Oc1ccc2[nH]nc(-c3cc(N4CCN(CCF)C(=O)C4)ncn3)c2c1 | 8.48
CC(C)Oc1ccc2[nH]nc(-c3cc(N4CCC(C#N)CC4)ncn3)c2c1 | 8.14
Cn1cc(-c2ccc3[nH]nc(-c4cc(N5CCC(F)(F)CC5)ncn4)c3c2)cn1 | 8.34
CO[C@@H]1CCN(c2cc(-c3n[nH]c4ccc(OC(C)C)cc34)ncn2)C1 | 8.13
CC(C)Oc1ccc2[nH]nc(-c3cc(N4CCN(C(=O)c5ccco5)CC4)ncn3)c2c1 | 8.06
FC1(F)CCN(c2cc(-c3n[nH]c4ccc(-c5cccnc5)cc34)ncn2)CC1 | 7.95
CC(C)Oc1ccc2[nH]nc(-c3cc(N4CCN(S(=O)(=O)C5CC5)CC4)ncn3)c2c1 | 8.26
CC(C)Oc1ccc2[nH]nc(-c3cc(N4C[C@H](O)[C@@H](O)[C@@H]4C)ncn3)c2c1 | 7.74
COCCN1CCN(c2cc(-c3n[nH]c4ccc(OC(C)C)cc34)ncn2)CC1 | 8.31
Cn1cc(-c2cc3c(-c4cc(N5CC[C@H](CF)C5)ncn4)n[nH]c3cc2F)cn1 | 7.87
CO[C@@H]1CCN(c2cc(-c3n[nH]c4ccc(-c5cnn(C)c5)cc34)ncn2)C1 | 8.40
CCOc1ccc2[nH]nc(-c3cc(N4C[C@H](F)[C@@H](F)C4)ncn3)c2c1 | 7.58
CC(C)Oc1ccc2[nH]nc(-c3cc(N4CCNCC4)ncn3)c2c1 | 7.91
CC(C)Oc1ccc2[nH]nc(-c3cc(N4CCN(C)CC4)ncn3)c2c1 | 8.27
CCOc1ccc2[nH]nc(-c3cc(N4CCN(C5CC5)CC4)ncn3)c2c1 | 7.78
CC(C)Oc1ccc2[nH]nc(-c3cc(N4CCC4)ncn3)c2c1 | 8.10

* * *

test system: kinases; assay: Kinase selectivity using Z'-LYTE or Adapta; assay type: biochemical; details: 1 μM of Example; Z-LYTE platform

molecule | percent inhibition CLK2 / %
CC(C)Oc1ccc2[nH]nc(-c3cc(N4CCO[C@H](C)C4)ncn3)c2c1 [Example D2] | 79
CC(C)Oc1ccc2[nH]nc(-c3cc(N4CCN(CCF)CC4)ncn3)c2c1 [Example D15] | 70
CC(C)Oc1ccc2[nH]nc(-c3cc(N4CCOCC4)ncn3)c2c1 [Example D6] | 66
CC(C)Oc1cc2c(-c3cc(N4CCN(C)CC4)ncn3)n[nH]c2cc1F [Example D25] | 89

meta.source: patent US9416126B2
